Listing: protein stability index of selected variants
B1: GLTSCR2 (parent)
chain: LARRRRRRQARREAEADKPRRLGR

Variants of: B1
measurement-protocol: protein stability index of a GFP-peptide fusion (GPS, HEK-293T) (PSI 1-6); higher = more stable;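 note: lentivirally expressed fusions sorted by FACS into six bins by GFP to DsRed ratio, PSI derived from sequencing read proportions per bin multiplied by bin number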
experimental-setup: c terminus: a fixed tail appended
Lab note: record just the number, no unit beside it.

Here are 3 variants together with their reported answers.
A2R	5.33
G23L	4.18
R8H	4.75

Query: Endpoint output: protein stability index of R21K . Value?
Reply: 4.44

Query: Endpoint output: protein stability index of R5L . Value?
Reply: 3.81
